binders and their reported Kd
MEASUREMENT_TARGET: T1, His-ZBD (E. coli, UniProt P0A6H1 1-52)
T1 construct: also called 6xHis-ZBD; source: E. coli BL21 DE3, purified (HisTrap, Superdex200); not shown: His6, N-terminal, kept
T1 sequence (looked up): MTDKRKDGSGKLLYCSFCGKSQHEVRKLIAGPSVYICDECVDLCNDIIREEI
METHOD: BLI; 1.37 uM His-ZBD loaded on Octet NTA biosensors, blocked with 600 nM cAbGFP; untagged synthetic peptide as analyte, 1 uM to 31.25 nM; 30 C; 25 mM HEPES pH 8.0, 200 mM KCl, 10 mM MgCl2, 2.5 mM ATP, 0.05% Tween 20; 1:1 fit
REPORTED_CONDITIONS: both partners purified
Square brackets hold non-standard residues; d marks the D form. Primed or numbered codes have the meaning given here. Ends that are not written are not given here. PEG3′ = three-unit polyethylene glycol linker
Please reply with the bare figure in nM and do not write the unit itself.

CYRGGRPALRVVKGGSGGSGGSWMTTPWGFHLP (designed binder, flexible linker; also called untagged, synthetic GroTAC2; source: synthetic peptide (GeneScript)) [GroTAC2 (synthetic)]
52.6

Please turn your attention to the following entry.
Q: Please supply the value of reported Kd for the item CYRGGRPALRVVK[PEG3′]SWMTTPWGFHLP (designed binder, residues 17-28 in the model PDB 8S32; the (PEG)3 linker is no amino acid stretch; also called XB-PEG3-SBP; source: synthetic peptide (KareBay Biochem)) [GroTAC3 (synthetic)]
A: 82.4
